Subject of test: T1, mouse SEMA4D, full length, on CHO-K1 cells (CHO-K1 mSEMA4D) (mouse, UniProt O09126 24-861)
T1 construct: whole, on cells; also called murine SEMA4D recombinant cells
T1 sequence (looked up): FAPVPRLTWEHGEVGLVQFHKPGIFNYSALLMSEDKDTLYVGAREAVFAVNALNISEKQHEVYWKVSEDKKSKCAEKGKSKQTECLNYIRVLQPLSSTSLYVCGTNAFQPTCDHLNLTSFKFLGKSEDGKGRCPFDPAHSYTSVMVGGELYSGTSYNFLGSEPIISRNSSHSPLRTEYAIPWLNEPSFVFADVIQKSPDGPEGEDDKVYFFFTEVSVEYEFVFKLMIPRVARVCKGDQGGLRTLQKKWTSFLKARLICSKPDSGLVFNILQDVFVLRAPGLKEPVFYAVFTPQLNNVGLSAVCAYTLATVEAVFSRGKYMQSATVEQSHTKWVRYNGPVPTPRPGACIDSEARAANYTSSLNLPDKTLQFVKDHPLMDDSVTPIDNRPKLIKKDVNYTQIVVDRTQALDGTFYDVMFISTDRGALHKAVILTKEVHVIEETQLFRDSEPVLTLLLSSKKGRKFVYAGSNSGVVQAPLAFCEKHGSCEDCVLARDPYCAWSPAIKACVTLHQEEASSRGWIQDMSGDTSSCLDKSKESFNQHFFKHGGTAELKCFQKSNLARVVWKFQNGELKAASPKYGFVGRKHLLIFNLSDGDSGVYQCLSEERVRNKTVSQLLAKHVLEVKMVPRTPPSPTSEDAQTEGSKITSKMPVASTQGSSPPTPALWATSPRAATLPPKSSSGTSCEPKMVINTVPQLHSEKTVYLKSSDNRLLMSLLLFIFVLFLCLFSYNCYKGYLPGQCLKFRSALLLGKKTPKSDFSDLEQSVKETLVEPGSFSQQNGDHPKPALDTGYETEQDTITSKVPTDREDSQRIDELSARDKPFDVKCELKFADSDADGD
Protocol summary: FACS, CHO-K1 mSEMA4D cells; Ab 0.534 nM
Observable: MFI
Give only the figure.

Binder	MFI
38H2E3 (antibody, V domains shown, Mouse monoclonal antibody purified from hybridoma supernatant on protein A) VH: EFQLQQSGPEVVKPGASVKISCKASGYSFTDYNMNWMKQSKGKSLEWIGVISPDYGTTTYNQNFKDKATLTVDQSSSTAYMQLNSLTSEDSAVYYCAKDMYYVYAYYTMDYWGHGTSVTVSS VL: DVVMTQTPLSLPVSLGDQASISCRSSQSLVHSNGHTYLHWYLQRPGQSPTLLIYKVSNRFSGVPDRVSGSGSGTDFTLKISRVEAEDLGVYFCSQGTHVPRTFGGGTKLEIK	29.5

Inquiry: Please give the measured MFI for this binder: 31G10C5 (antibody, V domains shown, Mouse monoclonal antibody purified from hybridoma supernatant on protein A) VH: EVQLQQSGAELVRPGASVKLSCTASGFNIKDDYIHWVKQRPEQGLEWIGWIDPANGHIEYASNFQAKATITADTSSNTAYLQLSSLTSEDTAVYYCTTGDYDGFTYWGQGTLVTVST VL: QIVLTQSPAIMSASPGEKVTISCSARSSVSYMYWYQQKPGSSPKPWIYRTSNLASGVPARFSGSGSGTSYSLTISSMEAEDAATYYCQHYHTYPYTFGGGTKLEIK
Reply text: 30.3

Inquiry: Please give the measured MFI for this binder: 32C8F10 (antibody, V domains shown, Mouse monoclonal antibody purified from hybridoma supernatant on protein A) VH: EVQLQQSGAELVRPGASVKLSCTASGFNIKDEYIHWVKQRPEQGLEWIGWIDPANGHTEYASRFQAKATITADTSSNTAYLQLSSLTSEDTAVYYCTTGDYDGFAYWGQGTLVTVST VL: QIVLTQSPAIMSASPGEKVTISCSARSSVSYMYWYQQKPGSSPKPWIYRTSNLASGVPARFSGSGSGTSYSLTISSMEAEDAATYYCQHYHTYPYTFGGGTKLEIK
Reply text: 29.8
